measurementTarget: UniProt:P32245
Sequence (P32245 whole entry): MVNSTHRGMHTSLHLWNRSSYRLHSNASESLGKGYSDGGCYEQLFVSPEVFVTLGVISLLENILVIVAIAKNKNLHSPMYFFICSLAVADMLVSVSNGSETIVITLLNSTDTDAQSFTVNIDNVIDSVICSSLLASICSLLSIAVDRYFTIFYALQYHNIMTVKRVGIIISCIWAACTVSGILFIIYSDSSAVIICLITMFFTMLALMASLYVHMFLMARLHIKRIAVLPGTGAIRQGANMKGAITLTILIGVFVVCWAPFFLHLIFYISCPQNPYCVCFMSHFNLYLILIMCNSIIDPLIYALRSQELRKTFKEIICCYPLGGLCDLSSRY
experimentDescription: Displacement of [125I]Nle4-D-Phe7-alpha-MSH from human MC4 receptor expressed in COS1 cells
Returns: string. Value is Y if measured IC50 is below 200 nM, and N if it is greater than or equal to it.

* CN1CCN(C(CN2CCN(CCCCc3cccc4ccccc34)CC2)c2ccccc2)CC1 (racemic) | N
* CC(C)N1CCN(C(CN2CCN(CCCc3ccccc3-c3ccc(F)cc3)CC2)c2ccc(F)cc2)CC1 (racemic) | Y
* COc1ccc2ccccc2c1CCCCN1CCN(CC(c2ccc(F)cc2)N2CCN(C(C)C)CC2)CC1 (stereo in doubt; (+)-10bg) | Y
* CN1CCN(C(CN2CCN(CCCCc3cccc4ccccc34)CC2)c2cccc(F)c2)CC1 (racemic) | N
* CCC(CC)N1CCN(C(CN2CCN(CCCCc3c(OC)ccc4ccccc34)CC2)c2ccc(F)cc2)CC1 (racemic) | Y
* Fc1ccc(C(CN2CCN(CCCCc3cccc4ccccc34)CC2)N2CCN(C3CCCCC3)CC2)cc1 (racemic) | N
* Cc1ccc(C(CN2CCN(CCCCc3cccc4ccccc34)CC2)N2CCN(C)CC2)cc1 (racemic) | N
* CN1CCN(C(CN2CCN(CCCCc3cccc4ccccc34)CC2)c2ccc(Br)cc2)CC1 (racemic) | Y
